- target or system: T1, bacterially produced human IL-6 (human, UniProt P05231 30-212)
- T1 construct: also called bactIL-6; prokaryotic IL-6
- assay info: SPR; periplasmic fraction
recorded endpoint: kon (M⁻¹ s⁻¹)
Give a bare numeral; the unit M⁻¹ s⁻¹ is implied.

Sample records with kon:
binder	display unit	kon
Fab 55C1 (Fab, V domains shown, VL-shuffled Fab of 29B11, periplasmic fraction; also called 55C1a) VH: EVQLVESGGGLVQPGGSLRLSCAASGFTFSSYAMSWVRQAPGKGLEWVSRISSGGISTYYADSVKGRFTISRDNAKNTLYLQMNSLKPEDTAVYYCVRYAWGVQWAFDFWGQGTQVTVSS VL: LNFMLTQPPSVSGSPGKTVTISCAGTSSDVGYGNYVSWYQQLPGTAPKLLIYNVNKRASGITDRFSGSKSGNTASLTISGLQSEDEADYYCASYRTGDNAAFGGGTKLTVLG	M⁻¹ s⁻¹	561000
Fab 55E2 (Fab, V domains shown, VL-shuffled Fab of 29B11, periplasmic fraction; also called 55E2b) VH: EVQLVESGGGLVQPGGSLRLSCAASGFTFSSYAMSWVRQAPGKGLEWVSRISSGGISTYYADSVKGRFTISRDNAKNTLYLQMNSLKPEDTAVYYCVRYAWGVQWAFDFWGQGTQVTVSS VL: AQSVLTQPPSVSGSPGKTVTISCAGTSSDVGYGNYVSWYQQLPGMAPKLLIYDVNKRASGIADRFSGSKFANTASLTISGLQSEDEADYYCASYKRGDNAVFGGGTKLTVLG	M⁻¹ s⁻¹	489000

Incoming: What measured kon goes with Fab 47C2 (Fab, V domains shown, VL-shuffled Fab of 29B11, periplasmic fraction; also called 47C2 (R4)) VH: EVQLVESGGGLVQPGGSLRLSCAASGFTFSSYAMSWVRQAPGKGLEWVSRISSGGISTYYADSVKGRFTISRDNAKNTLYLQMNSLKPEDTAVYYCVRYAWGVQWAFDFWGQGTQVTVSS VL: LSYDLTQPPSVSGSPGKTVTISCAGTSSDVGYGNYVSWYQQLPGMAPKILIYDVNKRASGIADRFSGSKSGNTASLTISGLQSEDEADYYCASYRRGETIVFGGGTHLTVLG ?
Outgoing: 1.12e+06

FYI, the data here is from patent US20220073604A1.
